From: patent US20100317863A1

system-tested: human glucocorticoid receptor (GR) complex (Homo sapiens)
Sequence (P04150 whole entry, one chain of several): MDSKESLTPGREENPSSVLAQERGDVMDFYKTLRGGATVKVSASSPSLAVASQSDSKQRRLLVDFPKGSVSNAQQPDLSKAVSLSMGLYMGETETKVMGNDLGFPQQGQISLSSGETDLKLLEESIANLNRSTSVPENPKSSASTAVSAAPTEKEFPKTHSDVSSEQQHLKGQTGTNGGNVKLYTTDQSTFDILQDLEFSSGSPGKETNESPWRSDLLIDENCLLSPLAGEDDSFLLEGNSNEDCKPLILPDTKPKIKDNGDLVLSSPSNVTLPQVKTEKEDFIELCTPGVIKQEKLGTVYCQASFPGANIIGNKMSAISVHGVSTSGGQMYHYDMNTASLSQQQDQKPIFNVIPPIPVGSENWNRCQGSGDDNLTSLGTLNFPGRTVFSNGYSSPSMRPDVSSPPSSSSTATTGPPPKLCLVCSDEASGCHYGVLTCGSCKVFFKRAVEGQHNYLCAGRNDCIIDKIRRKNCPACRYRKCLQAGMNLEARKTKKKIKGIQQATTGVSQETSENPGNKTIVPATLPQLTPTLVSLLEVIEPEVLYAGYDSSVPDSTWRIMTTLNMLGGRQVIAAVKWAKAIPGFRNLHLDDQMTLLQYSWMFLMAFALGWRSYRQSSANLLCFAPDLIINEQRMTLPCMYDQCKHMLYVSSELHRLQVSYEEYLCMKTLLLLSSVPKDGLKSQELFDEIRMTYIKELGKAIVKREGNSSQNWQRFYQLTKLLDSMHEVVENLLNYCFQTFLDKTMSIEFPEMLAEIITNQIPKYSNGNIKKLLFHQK
method-notes: Glucocorticoid Receptor Competitive Binding Assay (fluorescence polarization)
condition-info: competition with TAMRA-labeled dexamethasone; potent activity
reported-metric: IC50

Supply IC50 value. Item: CC[C@@H](CN1CCCc2cc(Br)ccc21)NS(=O)(=O)c1c(C)cc(C)cc1C ≤ 100 nM

Could you please provide reported IC50 for CC[C@@H](Cn1ccc2ccccc21)NS(=O)(=O)c1c(N)cc(Cl)cc1Cl ? Thanks! ≤ 100 nM

Report IC50, nothing else, for this compound: CC[C@@H](Cn1cc(C)c2ccccc21)NS(=O)(=O)c1c(C)cc(C)cc1C ≤ 100 nM

Identify IC50 associated with the compound Cc1cn(CC(NS(=O)(=O)c2c(N)cc(Cl)cc2Cl)C(C)C)c2ccccc12 (stereo not shown) ≤ 100 nM

Supply measured IC50 of CC[C@@H](Cn1cc(C#N)c2ccccc21)NS(=O)(=O)c1c(C)cc(C)cc1C in your reply. ≤ 100 nM

Given the compound CC[C@@H](Cn1cc(C#N)c2cc(F)ccc21)NS(=O)(=O)c1c(Cl)cc(Br)cc1Cl , write its reported IC50. ≤ 100 nM

Report measured IC50; entry is CC[C@@H](Cn1cc(C#N)c2cccc(F)c21)N(C)S(=O)(=O)c1c(C)cc(C)cc1N ≤ 100 nM

Return the recorded IC50 value; entry: Cc1cn(C[C@@H](NS(=O)(=O)c2c(N)cc(Cl)cc2Cl)C(C)C)c2ccccc12 ≤ 100 nM

Assign IC50 to the following record: CC[C@@H](Cn1cc(CC#N)c2ccccc21)NS(=O)(=O)c1c(C)cc(C)cc1N ≤ 100 nM

// fetch IC50 given entry CC[C@@H](Cn1cc(CC#N)c2ccccc21)NS(=O)(=O)c1c(C)cc(C)cc1C ≤ 100 nM

Provide one value: measured IC50 of Cc1cc(C)c(S(=O)(=O)N[C@H](Cn2cc(C#N)c3ccccc32)C(C)C)c(N)c1 ≤ 100 nM

Tell us which IC50 value is on record for CC[C@@H](Cn1cc(C)c2ccccc21)NS(=O)(=O)c1c(C)cc(C)cc1Br ≤ 100 nM

Name the recorded IC50 of the compound listed here: CC[C@@H](Cn1cc(C#N)c2cc(F)ccc21)NS(=O)(=O)c1c(C)cc(C)cc1C ≤ 100 nM

Determine its reported IC50: Cc1cc(C)c(S(=O)(=O)N(C)[C@@H](C)Cn2cc(C#N)c3cccc(F)c32)c(N)c1 ≤ 100 nM

Answer with the recorded IC50 for the compound listed here: Cc1ccc2c(c1)CCCN2CC(NS(=O)(=O)c1c(Cl)cc(Cl)cc1Cl)C(C)C (stereo not shown) ≤ 100 nM

Identify IC50 associated with the compound Cc1cc(C)c(S(=O)(=O)N[C@@H](C)Cn2cc(CC#N)c3cc(F)ccc32)c(N)c1 ≤ 100 nM

// fetch IC50 given entry Cc1cc(C)c(S(=O)(=O)NC(CN2CCCc3ccccc32)C(C)C)c(C)c1 (stereo not shown) ≤ 100 nM

// Input: CC[C@@H](Cn1cc(C)c2ccccc21)NS(=O)(=O)c1c(C)cc(C)cc1N . Output its IC50 only. ≤ 100 nM

Give IC50 for Cc1cc(C)c(S(=O)(=O)NC(Cn2ccc3ccccc32)C(C)C)c(C)c1 (stereo not shown) ≤ 100 nM
